Assay comment: PAMPA (parallel artificial membrane permeability assay)
Type: in vitro ADME
Condition info: unmodified peptide; PBS pH 7.4, 24 hrs, room temperature
Procedure: PAMPA assays were set up following manufacturer's instructions. Briefly, 1% phosphatidyl choline (Sigma) was dissolved in dodecane (Sigma) at 65° C. for 3 min. The membrane was applied to each well as per manufacturer's instructions. […] 100 μL of sample was put into each donor well. The acceptor wells contained 300 μL of a 5% DMSO in PBS solution. […] Absorbance at 215 nm was monitored. […] The acceptor well contained 10 mM DTT as a reducing agent. […] Absorbance at 280 nm was analyzed. […]
Where no end group is shown, it is not given here. [ ]: non-standard residue; d: D form. The star is where a group is joined. Biotin = O=C1N[C@H]2[C@H](CS[C@H]2CCCCC(=O)*)N1; NMeNva = CCC[C@H](NC)C(=O)O
Measured Log Pe of peptide, listed per entry.
Give the figure only, with no unit attached.

Some substances with known Log Pe of peptide results, for comparison:
Substance	Log Pe of peptide
MSQTKRLDDQLYWWEYL (Biotin-MSQTKRLDDQLYWWEYL) [Peptide 10]	−8.4
MITWYEFVAGTK [Peptide 7]	−7.8
(N-MeNva)ITWYEFVAGTK ([NMeNva]ITWYEFVAGTK(Biotin)-NH2; N-terminus assumed; SMILES CCC[C@H](NC)C(=O)N[C@H](C(=O)N[C@H](C(=O)N[C@@H](Cc1c[nH]c2ccccc12)C(=O)N[C@@H](Cc1ccc(O)cc1)C(=O)N[C@@H](CCC(=O)O)C(=O)N[C@@H](Cc1ccccc1)C(=O)N[C@H](C(=O)N[C@@H](C)C(=O)NCC(=O)N[C@H](C(=O)N[C@@H](CCCCNC(=O)CCCC[C@@H]1SC[C@@H]2NC(=O)N[C@@H]21)C(N)=O)[C@@H](C)O)C(C)C)[C@@H](C)O)[C@@H](C)CC) [Peptide 9]	−7.0

Q: Data request, read-out Log Pe of peptide, for Cyclo-MITWYEFVAGTK (not fully specified (C-terminus, bridges); printed as Cyclo-MITWYEFVAGTK; also: cyclized, ring closure not given here) [Peptide 8]
Result: −8.2

====

Measured half-life, listed per entry.
Assay comment: Human serum digests
Format: in vitro ADME
Condition info: reconstituted human serum, 37° C
Note: unit min is implicit; provide only the numeric part.

Molecule	Val
CSCC[C@@H]1NC(=O)CCCC(=O)NCCCC[C@@H](C(N)=O)NC(=O)[C@H](CO)NC(=O)[C@H](Cc2c[nH]c3ccccc23)NC(=O)[C@H](CCC(N)=O)NC(=O)[C@H](C)N(C)C(=O)[C@H](Cc2ccc(O)cc2)NC(=O)[C@H](CCC(=O)O)NC(=O)[C@H](Cc2ccc(O)cc2)NC(=O)[C@H](C)N(C)C(=O)[C@H](Cc2ccc(O)cc2)NC(=O)[C@H](Cc2ccccc2)NC1=O [cycSUPR]	9600

Q: Data request, read-out half-life, for CSCC[C@H](N)C(=O)N[C@@H](Cc1ccccc1)C(=O)N[C@@H](Cc1ccc(O)cc1)C(=O)N(C)[C@@H](C)C(=O)N[C@@H](Cc1ccc(O)cc1)C(=O)N[C@@H](CCC(=O)O)C(=O)N[C@@H](Cc1ccc(O)cc1)C(=O)N(C)[C@@H](C)C(=O)N[C@@H](CCC(N)=O)C(=O)N[C@@H](Cc1c[nH]c2ccccc12)C(=O)N[C@@H](CO)C(=O)N[C@@H](CCCCN)C(N)=O [linSUPR]
Result: 16.2
